Listed next: entries and their corresponding Peptide/Antibiotic Concentration where at least 80% of biofilm growth was inhibited.
- Test system: MRSA USA300
- experimental_details: Biofilm inhibition (at least 80%), MRSA
- Format: cell-based, methicillin resistant Staphylococcus aureus
- test_parameters: n = 4, 10% TSB + 0.1% glucose, 18-24 hours, crystal violet
Answer with the number, then the unit.

Query string: Using MRSA USA300 as the test system, report measured Peptide/Antibiotic Concentration where at least 80% of biofilm growth was inhibited of "O=C(O)c1cn(C2CC2)c2cc(N3CCNCC3)c(F)cc2c1=O" .
Result string: 8 µg/mL

====

Listed next: entries and their corresponding FIC.
- System: MRSA USA 300 LAC biofilms
- experimental_details: Checkerboard biofilm synergy of AB103-D with antimicrobials, MRSA
- Assay type: cell-based, methicillin resistant Staphylococcus aureus
- test_parameters: antibiotic used with AB103-D; MRSA USA 300 LAC; ≤0.5 synergy
Lab note: record the figure alone, no unit after it.

Completed entries (count: 5):
compound | meas_value
C[C@H]1[C@H](NC(=O)/C(=N\OC(C)(C)C(=O)O)c2csc(N)n2)C(=O)N1S(=O)(=O)O [Aztreonam] | 0.75
OO [H2O2] | 0.63
CCn1cc(C(=O)O)c(=O)c2cc(F)c(N3CCNCC3)cc21 [Norfloxacin] | 0.5
CC[C@H]1OC(=O)[C@H](C)[C@@H](O[C@H]2C[C@@](C)(OC)[C@@H](O)[C@H](C)O2)[C@H](C)[C@@H](O[C@@H]2O[C@H](C)C[C@H](N(C)C)[C@H]2O)[C@](C)(O)C[C@@H](C)CN(C)[C@H](C)[C@@H](O)[C@]1(C)O [Azithromycin] | 0.38
O=C(O)c1cn(C2CC2)c2cc(N3CCNCC3)c(F)cc2c1=O [Ciprofloxacin] | 0.5

Query string: Retrieve FIC measured for O=C(O)CN(CCN(CC(=O)O)CC(=O)O)CC(=O)O [EDTA] and print it.
Result string: 0.38

Query string: Retrieve FIC measured for C[C@H]1COc2c(N3CCN(C)CC3)c(F)cc3c(=O)c(C(=O)O)cn1c23 [Levofloxacin] and print it.
Result string: 0.75

====

- Test system: P. aeruginosa PAO1 planktonic cells
- experimental_details: MIC of antibiotics against planktonic cells, PAO1
- Assay type: cell-based, Pseudomonas aeruginosa
- test_parameters: Pseudomonas aeruginosa, PAO1, read-out: MIC against planktonic cells in BM2 medium
Listed next: entries and their corresponding log10(MIC).
// do not treat as linear: log10 of MIC, unit µg/mL

Query string: Retrieve log10(MIC) measured for "NC[C@H]1O[C@H](O[C@H]2[C@H](O)[C@@H](O[C@H]3O[C@H](CO)[C@@H](O)[C@H](N)[C@H]3O)[C@H](N)C[C@@H]2N)[C@H](N)C[C@@H]1O" and print it.
Result string: 0.30

Query string: Retrieve log10(MIC) measured for "CCN1CCN(C(=O)N[C@@H](C(=O)N[C@@H]2C(=O)N3[C@@H]2SC(C)(C)[C@@H]3C(=O)O)c2ccccc2)C(=O)C1=O" and print it.
Result string: 0.60

====

- Tested on: MRSA USA300 biofilms
- experimental_details: Biofilm inhibition by >95% pure peptides (crystal violet), MRSA
- Assay type: cell-based, methicillin resistant Staphylococcus aureus
- test_parameters: MRSA, 24 hours
Where a SMILES comes first, the peptide text is derived from it. [ ]: non-standard residue; d: D form.
value_type: IC50 (nM)
Quick note: give the figure in nM, leave out the unit.

Query string: Retrieve IC50 measured for CC[C@@H](C)[C@@H](NC(=O)[C@@H](CCCNC(=N)N)NC(=O)[C@H](N)CCCCN)C(=O)N[C@H](CCCNC(=N)N)C(=O)N[C@H](Cc1c[nH]c2ccccc12)C(=O)N[C@@H](C(=O)N[C@@H](C(=O)N[C@H](CC(C)C)C(=O)N[C@H](CCCNC(=N)N)C(=O)N[C@@H](C(=O)N[C@@H](C(=O)N[C@H](CCCNC(=N)N)C(N)=O)[C@H](C)CC)C(C)C)[C@H](C)CC)C(C)C [AB101-D, krirwvilrvir-NH2] (H-[dK][dR][dI][dR][dW][dV][dI][dL][dR][dV][dI][dR]-NH2) and print it.
Result string: 270

====

- System: Klebsiella pneumoniae
- experimental_details: MIC (broth microdilution) of peptides, K. pneumoniae
- Format: cell-based
- test_parameters: mode of three biological replicates
Where a SMILES comes first, the peptide text is derived from it. [ ]: non-standard residue; d: D form.
Listed next: entries and their corresponding MIC.
Quick note: give the figure in µg/mL, leave out the unit.

compound | study_system | measure_unit | MIC
CC[C@@H](C)[C@@H](NC(=O)[C@@H](C)NC(=O)[C@@H](CCCNC(=N)N)NC(=O)[C@@H](Cc1c[nH]c2ccccc12)NC(=O)[C@@H](CCC(N)=O)NC(=O)[C@H](NC(=O)[C@@H](CCCNC(=N)N)NC(=O)[C@H](NC(=O)[C@H](NC(=O)[C@@H](CCCNC(=N)N)NC(=O)[C@H](NC(=O)[C@H](N)CCCNC(=N)N)C(C)C)C(C)C)[C@H](C)CC)C(C)C)C(N)=O [AB103-D, rvrvirvqwrai-NH2] (H-[dR][dV][dR][dV][dI][dR][dV][dQ][dW][dR][dA][dI]-NH2) | Klebsiella pneumoniae | µg/mL | 0.8

Consider the record given below.
Query string: Retrieve MIC measured for CC[C@@H](C)[C@@H](NC(=O)[C@@H](C)NC(=O)[C@@H](CCCNC(=N)N)NC(=O)[C@@H](Cc1c[nH]c2ccccc12)NC(=O)[C@@H](CCC(N)=O)NC(=O)[C@H](NC(=O)[C@@H](CCCNC(=N)N)NC(=O)[C@@H](Cc1c[nH]c2ccccc12)NC(=O)[C@H](NC(=O)[C@@H](CCCNC(=N)N)NC(=O)[C@H](NC(=O)[C@H](N)CCCNC(=N)N)C(C)C)C(C)C)C(C)C)C(N)=O [AB111-D, rvrvwrvqwrai] (H-[dR][dV][dR][dV][dW][dR][dV][dQ][dW][dR][dA][dI]-NH2) and print it.
Result string: 0.8

====

- Tested on: P. aeruginosa PAO1 biofilms
- experimental_details: Checkerboard biofilm synergy of AB103-D with antimicrobials, PAO1
- Format: cell-based, Pseudomonas aeruginosa
- test_parameters: in combination with AB103-D; PAO1
value_type: Fold Decrease in concentration of Antibiotic

compound | meas_value
OO | 4-fold
NCC[C@H](O)C(=O)N[C@@H]1C[C@H](N)[C@@H](O[C@H]2O[C@H](CN)[C@@H](O)[C@H](O)[C@H]2O)[C@H](O)[C@H]1O[C@H]1O[C@H](CO)[C@@H](O)[C@H](N)[C@H]1O | 16-fold
C[C@H]1COc2c(N3CCN(C)CC3)c(F)cc3c(=O)c(C(=O)O)cn1c23 | 8-fold
CO/N=C(\C(=O)N[C@@H]1C(=O)N2C(C(=O)[O-])=C(C[N+]3(C)CCCC3)CS[C@H]12)c1csc(N)n1 [Cefepime] | 16-fold

Consider the record given below.
Query string: Retrieve Fold Decrease in concentration of Antibiotic measured for "CN[C@H](CC(C)C)C(=O)N[C@H]1C(=O)N[C@@H](CC(N)=O)C(=O)N[C@H]2C(=O)N[C@H]3C(=O)N[C@H](C(=O)N[C@H](C(=O)O)c4cc(O)cc(O)c4-c4cc3ccc4O)[C@H](O)c3ccc(c(Cl)c3)Oc3cc2cc(c3O[C@@H]2O[C@H](CO)[C@@H](O)[C@H](O)[C@H]2O[C@H]2C[C@](C)(N)[C@H](O)[C@H](C)O2)Oc2ccc(cc2Cl)[C@H]1O" and print it.
Result string: 16-fold

====

- Tested on: peripheral blood mononuclear cells (PBMCs)
- experimental_details: Cytotoxicity (LDH release), PBMCs
Where a SMILES comes first, the peptide text is derived from it. [ ]: non-standard residue; d: D form.

compound | study_system | Cytotoxicity (LDH)
CC[C@@H](C)[C@@H](NC(=O)[C@@H](CCCNC(=N)N)NC(=O)[C@@H](CCCCN)NC(=O)[C@@H](CCCNC(=N)N)NC(=O)[C@H](NC(=O)[C@H](NC(=O)[C@@H](CCCNC(=N)N)NC(=O)[C@H](NC(=O)[C@H](N)CCCNC(=N)N)C(C)C)C(C)C)[C@H](C)CC)C(=O)N[C@H](CCCNC(=N)N)C(=O)N[C@H](Cc1c[nH]c2ccccc12)C(=O)N[C@@H](C(N)=O)C(C)C [AB102-D, rvrvirkrirwv-NH2] (H-[dR][dV][dR][dV][dI][dR][dK][dR][dI][dR][dW][dV]-NH2) | peripheral blood mononuclear cells (PBMCs) | low toxicity
CC[C@@H](C)[C@@H](NC(=O)[C@@H](CCCNC(=N)N)NC(=O)[C@H](N)CCCCN)C(=O)N[C@H](CCCNC(=N)N)C(=O)N[C@H](Cc1c[nH]c2ccccc12)C(=O)N[C@@H](C(=O)N[C@@H](C(=O)N[C@H](CC(C)C)C(=O)N[C@H](CCCNC(=N)N)C(=O)N[C@@H](C(=O)N[C@@H](C(=O)N[C@H](CCCNC(=N)N)C(N)=O)[C@H](C)CC)C(C)C)[C@H](C)CC)C(C)C [AB101-D, krirwvilrvir-NH2] (H-[dK][dR][dI][dR][dW][dV][dI][dL][dR][dV][dI][dR]-NH2) | peripheral blood mononuclear cells (PBMCs) | low toxicity
